biological target: recombinant human DPP7 (Homo sapiens, UniProt Q9UHL4); construct: purchased R&D Systems; assay: DPP7 inhibition, fluorogenic substrate Lys-Pro-AMC; format: biochemical
pIC50: −log10 of the molar value.
readout: pIC50

CN(c1ccc2ncccc2c1)[C@H]1CCN(CC(=O)N2CCC[C@H]2C#N)C1 = 5.69

P. Cc1c(N(C)[C@H]2CCN(CC(=O)N3CCC[C@H]3C#N)C2)cnc2ccccc12
Q. N#C[C@@H]1CCCN1C(=O)CN1CC[C@H](NC(=O)c2coc3cc(F)ccc23)C1
R. N#C[C@@H]1CC(F)(F)CN1C(=O)CN1CC[C@H](Nc2cccc3sccc23)C1
### Prompt List these items ordered by pIC50, big to small. Write the labels in rank order as requested.
### Response R, Q, P
(R: 7.12, Q: 5.76, P: 5.40)
